// reported viscosity index per item
- PROCEDURE SUMMARY: Viscosity index (P-56)
- Format: physicochemical
PROPERTY LABEL: viscosity index

MOLECULE	PROPERTY LABEL	NUMBER
CCCCC(CC)COC(=O)CCCCC(=O)OCC(CC)(COC(=O)CCCCC(=O)OCC(CC)CCCC)COC(=O)CCCCC(=O)OCC(CC)CCCC (stereo not drawn)	viscosity index	196
CCCCC(CC)COC(=O)CCCCCCCC(=O)OCC(C)(C)COC(=O)CCCCCCCC(=O)OCC(CC)CCCC (stereo not drawn)	viscosity index	169
CCCCC(CC)COC(=O)CCCCCCCC(=O)OCC(CC)(COC(=O)CCCCCCCC(=O)OCC(CC)CCCC)COC(=O)CCCCCCCC(=O)OCC(CC)CCCC (stereo not drawn)	viscosity index	165
CCCCC(CC)COC(=O)CCCCCCCCC(=O)OCC(CC)(COC(=O)CCCCCCCCC(=O)OCC(CC)CCCC)COC(=O)CCCCCCCCC(=O)OCC(CC)CCCC (stereo not drawn)	viscosity index	196
CCCCC(CC)COC(=O)CCCCCCCC(=O)OCC(CC)(CC)COC(=O)CCCCCCCC(=O)OCC(CC)CCCC (stereo not drawn)	viscosity index	171
CCCCC(CC)COC(=O)CCCCC(=O)OCC(C)(C)COC(=O)CCCCC(=O)OCC(CC)CCCC (stereo not drawn)	viscosity index	161
CCCCC(CC)COC(=O)CCCCC(=O)OCC(CC)(CC)COC(=O)CCCCC(=O)OCC(CC)CCCC (stereo not drawn)	viscosity index	138
CCCCC(CC)COC(=O)CCCCCCCCC(=O)OCC(C)(C)COC(=O)CCCCCCCCC(=O)OCC(CC)CCCC (stereo not drawn)	viscosity index	172
CCCCC(CC)COC(=O)CCCCCCCCC(=O)OCC(CC)(CC)COC(=O)CCCCCCCCC(=O)OCC(CC)CCCC (stereo not drawn)	viscosity index	165

====

- PROCEDURE SUMMARY: Pour point (IS: 1448: P-10)
- Assay type: physicochemical
PROPERTY LABEL: pour point

COMPOUND	PROPERTY LABEL	RESULT
CCCCC(CC)COC(=O)CCCCCCCC(=O)OCC(C)(C)COC(=O)CCCCCCCC(=O)OCC(CC)CCCC (stereo not shown)	pour point	> −27 °C
CCCCC(CC)COC(=O)CCCCC(=O)OCC(CC)(CC)COC(=O)CCCCC(=O)OCC(CC)CCCC (stereo not shown)	pour point	> −24 °C
CCCCC(CC)COC(=O)CCCCCCCCC(=O)OCC(CC)(CC)COC(=O)CCCCCCCCC(=O)OCC(CC)CCCC (stereo not shown)	pour point	> −39 °C
CCCCC(CC)COC(=O)CCCCCCCCC(=O)OCC(C)(C)COC(=O)CCCCCCCCC(=O)OCC(CC)CCCC (stereo not shown)	pour point	> −24 °C

====

- PROCEDURE SUMMARY: Kinematic viscosity (IS: 1448: P-25)
- Type: physicochemical
- MEASUREMENT CONDITIONS: 100° C.; in cSt
// reported viscosity at 100° C. per item

COMPOUND	viscosity at 100° C.
CCCCC(CC)COC(=O)CCCCC(=O)OCC(CC)(COC(=O)CCCCC(=O)OCC(CC)CCCC)COC(=O)CCCCC(=O)OCC(CC)CCCC (stereo not shown)	10.17
CCCCC(CC)COC(=O)CCCCCCCCC(=O)OCC(CC)(COC(=O)CCCCCCCCC(=O)OCC(CC)CCCC)COC(=O)CCCCCCCCC(=O)OCC(CC)CCCC (stereo not shown)	16.87
CCCCC(CC)COC(=O)CCCCC(=O)OCC(CC)(CC)COC(=O)CCCCC(=O)OCC(CC)CCCC (stereo not shown)	12.83
CCCCC(CC)COC(=O)CCCCCCCCC(=O)OCC(CC)(CC)COC(=O)CCCCCCCCC(=O)OCC(CC)CCCC (stereo not shown)	7.24
CCCCC(CC)COC(=O)CCCCCCCC(=O)OCC(CC)(COC(=O)CCCCCCCC(=O)OCC(CC)CCCC)COC(=O)CCCCCCCC(=O)OCC(CC)CCCC (stereo not shown)	8.53
CCCCC(CC)COC(=O)CCCCCCCCC(=O)OCC(C)(C)COC(=O)CCCCCCCCC(=O)OCC(CC)CCCC (stereo not shown)	14.8
CCCCC(CC)COC(=O)CCCCCCCC(=O)OCC(C)(C)COC(=O)CCCCCCCC(=O)OCC(CC)CCCC (stereo not shown)	5.60

Sourced from patent US11142718B2
